Test: Therapeutic index administered perorally in mouse
Assay type: organism-based
Settings: in vivo, po, read-out: Therapeutic index
Property Label: selectivity ratio
The answer should be written as a number, with no unit following it.

Study these solved cases before continuing.
compound=C/N=C(/Cc1ccc(Cl)cc1)NC.Cl experimental_value=127
compound=C/N=C(\NC)c1ccc(Cl)c(Cl)c1.Cl experimental_value=20
compound="C/N=C(/Cc1ccc2ccccc2c1)NC.Cl [NAPACTADINE HYDROCHLORIDE]" experimental_value=34
compound=C/N=C(\NC)c1ccc(Cl)cc1.Cl experimental_value=32
compound=CC/N=C(/Cc1ccc(Cl)c(Cl)c1)NCC.Cl experimental_value=7

Alright, here's another compound for you.
Input: // lookup selectivity ratio for C/N=C(/Cc1ccc([N+](=O)[O-])cc1)NC.Cl
Output: 213

###

Test: Therapeutic index administered intraperitoneally in mouse
Assay type: organism-based
Settings: in vivo, ip, read-out: Therapeutic index
Each entry below lists one item and its recorded selectivity ratio value.
// return just the number, without any unit appended

Input: Looking for the measured selectivity ratio of C/N=C(/Cc1ccc([N+](=O)[O-])cc1)NC.Cl , can you help?
Output: 67

Input: Here is the next molecule: C/N=C(/Cc1ccc2ccccc2c1)NC.Cl [NAPACTADINE HYDROCHLORIDE]
Output: 5

Input: And for C/N=C(/Cc1ccc(Cl)cc1)NC.Cl ?
Output: 30

Input: Also check C/N=C(\NC)c1ccc(Cl)cc1.Cl
Output: 16

Input: And then CC/N=C(/Cc1ccc(Cl)c(Cl)c1)NCC.Cl , what is it?
Output: 3

###

Attribute: LD50
Assay: Lethal dose in mouse i.p.
Format: toxicity, organism-based
Conditions: in vivo, ip
Respond with the bare value in mg/kg.

Use the examples below as a reference point.
compound=C/N=C(\NC)c1ccc(Cl)cc1.Cl experimental_value=108
compound=CC/N=C(/Cc1ccc(Cl)c(Cl)c1)NCC.Cl experimental_value=31.6
compound=C/N=C(\NC)c1ccc(Cl)c(Cl)c1.Cl experimental_value=60

Input: LD50 for C/N=C(/Cc1ccc([N+](=O)[O-])cc1)NC.Cl ?
Output: 215

Input: Same again, this time with C/N=C(/Cc1ccc(Cl)cc1)NC.Cl
Output: 69.4

Input: And the next one, C/N=C(/Cc1ccc2ccccc2c1)NC.Cl [NAPACTADINE HYDROCHLORIDE] ?
Output: 68.1

###

Assay: Lethal dose in mouse p.o.
Type: toxicity, organism-based
Settings: in vivo, po
Threshold 400 mg/kg: LD50 strictly smaller gives condition met, otherwise condition not met.

molecule=C/N=C(\NC)c1ccc(Cl)cc1.Cl answer_label="condition met"
molecule=CC/N=C(/Cc1ccc(Cl)c(Cl)c1)NCC.Cl answer_label="condition met"
molecule="C/N=C(/Cc1ccc2ccccc2c1)NC.Cl [NAPACTADINE HYDROCHLORIDE]" answer_label="condition not met"
molecule=C/N=C(/Cc1ccc([N+](=O)[O-])cc1)NC.Cl answer_label="condition not met"
molecule=C/N=C(\NC)c1ccc(Cl)c(Cl)c1.Cl answer_label="condition met"

Input: Answer whether the molecule C/N=C(/Cc1ccc(Cl)cc1)NC.Cl has LD50 strictly less than 400 mg/kg
Output: condition not met
